Exercise: state measured IC50 for each of the compounds provided.
- SYSTEM: HLA-DRB1*04:04 (Homo sapiens, UniProt P01903+P01911, A100R/A169T/F76Y/I96L/K127E/L162R/M171V/N62H/P40V/Q125Y/R42H/S133A/S149N/S66Y/V209L/W38E)
- RUN DESCRIPTION: Competition peptide-binding assay, HLA-DRB1*04:04
- MEASUREMENT PARAMETERS: competition with 0.02 μM biotinylated GAD65 270–285, plate-bound HLA-DRB1*04:04, increasing peptide concentrations; read-out: IC50 *04:04
Peptide text beside a SMILES is read from it.

Which IC50 reading was recorded for the compound CC(C)C[C@H](NC(=O)CNC(=O)[C@H](CCCCN)NC(=O)[C@H](CO)NC(=O)[C@@H](N)[C@@H](C)O)C(=O)N[C@@H](Cc1ccccc1)C(=O)N[C@@H](CCCNC(=N)N)C(=O)N[C@@H](C)C(=O)N[C@@H](C)C(=O)N[C@H](C(=O)N1CCC[C@H]1C(=O)N[C@@H](CO)C(=O)NCC(=O)N[C@@H](C)C(=O)N[C@@H](CO)C(=O)O)C(C)C [peptide 26] (H-TSKGLFRAAVPSGAS-OH) ?
500 nM

Consider the record given below.
Which IC50 reading was recorded for the compound CC[C@H](C)[C@H](NC(=O)[C@H](CCCNC(=N)N)NC(=O)[C@@H](N)CCCCN)C(=O)N[C@@H](C)C(=O)N[C@@H](CCCCN)C(=O)N[C@@H](C)C(=O)N[C@H](C(=O)N[C@@H](CC(N)=O)C(=O)N[C@@H](CCC(=O)O)C(=O)N[C@@H](CCCCN)C(=O)N[C@@H](CO)C(=O)N[C@@H](CS)C(=O)N[C@@H](CC(N)=O)C(=O)N[C@@H](CS)C(=O)N[C@@H](CC(C)C)C(=O)O)C(C)C [peptide 326] (H-KRIAKAVNEKSCNCL-OH) ?
700 nM

# credit: paper PMC5108039
